Each item that follows carries a reported PBM E-score.
targetSystem: Ste12 (UniProt P13574)
Sequence (P13574 whole entry): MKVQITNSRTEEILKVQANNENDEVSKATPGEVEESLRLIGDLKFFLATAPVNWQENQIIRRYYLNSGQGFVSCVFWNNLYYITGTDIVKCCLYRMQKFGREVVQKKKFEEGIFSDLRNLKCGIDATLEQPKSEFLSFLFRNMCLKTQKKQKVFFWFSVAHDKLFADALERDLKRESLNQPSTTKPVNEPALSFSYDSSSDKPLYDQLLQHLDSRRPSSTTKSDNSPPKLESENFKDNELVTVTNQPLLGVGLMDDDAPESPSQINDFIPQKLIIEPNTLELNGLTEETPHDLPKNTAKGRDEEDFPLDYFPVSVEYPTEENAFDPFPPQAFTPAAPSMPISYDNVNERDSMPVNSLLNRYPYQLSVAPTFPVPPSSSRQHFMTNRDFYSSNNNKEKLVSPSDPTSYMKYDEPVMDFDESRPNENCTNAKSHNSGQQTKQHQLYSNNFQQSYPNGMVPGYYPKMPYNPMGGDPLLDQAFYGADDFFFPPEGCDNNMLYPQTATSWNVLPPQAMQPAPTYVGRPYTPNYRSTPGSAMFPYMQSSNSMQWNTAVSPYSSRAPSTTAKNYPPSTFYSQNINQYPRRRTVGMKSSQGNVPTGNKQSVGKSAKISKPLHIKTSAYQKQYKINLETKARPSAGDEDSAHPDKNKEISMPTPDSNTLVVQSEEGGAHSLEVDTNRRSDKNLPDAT
assayExplanation: PBM E-score (8-mer binding enrichment) (E-score (-0.5 to 0.5)); higher = stronger / more preferred TF binding
conditionNotes: protein concentration: 200 nM; construct: GST-DNA-binding domain
The full ranking holds about 33,000 sequences; the median of “E-score (-0.5 to 0.5)” is about -0.01, and the highest 2% start at about 0.26. Shown is part of a subset that was picked to be rich in the highest values.

{"sequenceInput": "AAACATAC", "PBM E-score": 0.241}
{"sequenceInput": "GGAGGGGA", "PBM E-score": 0.366}
{"sequenceInput": "CGGTGGGA", "PBM E-score": 0.033}
{"sequenceInput": "CGAGGGGA", "PBM E-score": 0.0767}
{"sequenceInput": "CTGATACA", "PBM E-score": 0.28}

For reference, reported PBM E-score for CTAATAAA stands at 0.145

For reference, reported PBM E-score for GTGATACA stands at 0.195

For reference, reported PBM E-score for TTAATAAA stands at 0.344

For reference, reported PBM E-score for TATCGAAA stands at 0.258

For reference, reported PBM E-score for ATACATAT stands at 0.294

---

targetSystem: Ste12 (UniProt P13574)
assayExplanation: PBM E-score (8-mer binding enrichment) (E-score (-0.5 to 0.5)); higher = stronger / more preferred TF binding
conditionNotes: protein concentration: 200 nM; construct: GST-DNA-binding domain
The full ranking holds about 33,000 sequences; the median of “E-score (-0.5 to 0.5)” is about -0.01, and the highest 2% start at about 0.26. This is one part of a sample in which the highest values are shown more often than they occur.
Cut-off 0.1 on PBM E-score, inclusive. At or above means YES; below means NO.

{"sequenceInput": "AATTTTGG", "targetSystem": "Ste12 (UniProt P13574)", "className": "YES"}
{"sequenceInput": "GGTGCGAA", "targetSystem": "Ste12 (UniProt P13574)", "className": "YES"}
{"sequenceInput": "CGATCTCC", "targetSystem": "Ste12 (UniProt P13574)", "className": "NO"}
{"sequenceInput": "TATAAATA", "targetSystem": "Ste12 (UniProt P13574)", "className": "YES"}
{"sequenceInput": "CTCTGAAC", "targetSystem": "Ste12 (UniProt P13574)", "className": "NO"}

IN: Test whether the sequence ATGTATCC records PBM E-score of 0.1 or higher.
OUT: NO

IN: Test whether the sequence AAACATTA records PBM E-score of 0.1 or higher.
OUT: YES

IN: Test whether the sequence TCCAAAGA records PBM E-score of 0.1 or higher.
OUT: NO

IN: Test whether the sequence ACCCGCCG records PBM E-score of 0.1 or higher.
OUT: YES

IN: Test whether the sequence ACTTGGAT records PBM E-score of 0.1 or higher.
OUT: NO

IN: Test whether the sequence CCCGCACA records PBM E-score of 0.1 or higher.
OUT: NO

IN: Test whether the sequence AATAGCAA records PBM E-score of 0.1 or higher.
OUT: NO

IN: Test whether the sequence CCCCGCCA records PBM E-score of 0.1 or higher.
OUT: YES

IN: Test whether the sequence CCCCGCCC records PBM E-score of 0.1 or higher.
OUT: YES

---

targetSystem: Ste12 (UniProt P13574)
assayExplanation: PBM E-score (8-mer binding enrichment) (E-score (-0.5 to 0.5)); higher = stronger / more preferred TF binding
conditionNotes: protein concentration: 200 nM; construct: GST-DNA-binding domain
Over roughly 33,000 sequences, “E-score (-0.5 to 0.5)” has its median near -0.01; the highest 2% begin near 0.26. The list comes from a sample in which the highest values are over-represented; it also holds close analogues and randomly drawn sequences.
measure: PBM E-score
Returns: the value as a bare number; no unit string appended.

{"sequenceInput": "AGGAAACA", "measurement": 0.19}
{"sequenceInput": "GGATGAAC", "measurement": -0.196}
{"sequenceInput": "CGATGAAC", "measurement": 0.124}
{"sequenceInput": "AAGAAACG", "measurement": 0.148}
{"sequenceInput": "ACATCTAA", "measurement": 0.114}
{"sequenceInput": "AGGAAACG", "measurement": -0.105}
{"sequenceInput": "GTGAAATA", "measurement": 0.169}
{"sequenceInput": "GTGAAAAA", "measurement": 0.232}

Form field PBM E-score for item ATGAAAGA on Ste12 (UniProt P13574): 0.184

Form field PBM E-score for item ATGAAACG on Ste12 (UniProt P13574): 0.484

Form field PBM E-score for item ATGAAACA on Ste12 (UniProt P13574): 0.495

---

Each item that follows carries a reported PBM E-score.
targetSystem: Ste12 (UniProt P13574)
assayExplanation: PBM E-score (8-mer binding enrichment) (E-score (-0.5 to 0.5)); higher = stronger / more preferred TF binding
conditionNotes: protein concentration: 200 nM; construct: GST-DNA-binding domain
Over roughly 33,000 sequences, “E-score (-0.5 to 0.5)” has its median near -0.01; the highest 2% begin near 0.26. Shown is part of a subset that was picked to be rich in the highest values.

Known PBM E-score results, listed for orientation:
{"sequenceInput": "ATCCTACG", "PBM E-score": -0.141}
{"sequenceInput": "ACAAAATC", "PBM E-score": 0.291}
{"sequenceInput": "CGCCTCTA", "PBM E-score": -0.0334}
{"sequenceInput": "CTCACAGA", "PBM E-score": 0.00059}
{"sequenceInput": "TAGTGAAA", "PBM E-score": 0.324}
{"sequenceInput": "GCCCTGGA", "PBM E-score": -0.235}

For reference, reported PBM E-score for AAGTAGTG stands at -0.075

For reference, reported PBM E-score for TTACCCAA stands at 0.0694

For reference, reported PBM E-score for CAGTGAAA stands at 0.197

For reference, reported PBM E-score for ACAGCCGT stands at -0.0628

For reference, reported PBM E-score for CTGTGCAA stands at -0.101

For reference, reported PBM E-score for CCGACACA stands at -0.0323

For reference, reported PBM E-score for ATGAATGA stands at 0.192

For reference, reported PBM E-score for TAGTGATA stands at -0.126

For reference, reported PBM E-score for AATGGAGC stands at -0.0645

For reference, reported PBM E-score for GAGTGAAA stands at 0.204

For reference, reported PBM E-score for CTTGAGAC stands at 0.158

For reference, reported PBM E-score for ACGGGTCT stands at -0.211

For reference, reported PBM E-score for GAAAAATC stands at 0.201

For reference, reported PBM E-score for TAGTGACA stands at -0.0814

For reference, reported PBM E-score for ATTTAGGA stands at -0.039

For reference, reported PBM E-score for GCGAAGAC stands at -0.141

For reference, reported PBM E-score for AAACCGTT stands at 0.00687

For reference, reported PBM E-score for GCGCCGGA stands at -0.0097

For reference, reported PBM E-score for CAAAAATC stands at 0.123

For reference, reported PBM E-score for ACAAAATG stands at 0.0682

For reference, reported PBM E-score for ATTGTTTA stands at 0.0651

For reference, reported PBM E-score for GGCACTTA stands at -0.157

---

targetSystem: Ste12 (UniProt P13574)
assayExplanation: PBM E-score (8-mer binding enrichment) (E-score (-0.5 to 0.5)); higher = stronger / more preferred TF binding
conditionNotes: protein concentration: 200 nM; construct: GST-DNA-binding domain
Whole data set: some 33,000 sequences, median “E-score (-0.5 to 0.5)” near -0.01, cut for the highest 2% near 0.26. The full list was thinned out, with the highest values kept by preference.
Cut-off 0.2 on PBM E-score, inclusive. At or above means true; below means false.

{"sequenceInput": "CCTTTAAA", "className": "false"}

IN: Test whether the sequence ACCCCACC records PBM E-score of 0.2 or higher.
OUT: true

IN: Test whether the sequence CATGATAC records PBM E-score of 0.2 or higher.
OUT: true

IN: Test whether the sequence CGCGGGTA records PBM E-score of 0.2 or higher.
OUT: false

IN: Test whether the sequence GAAATACA records PBM E-score of 0.2 or higher.
OUT: false

IN: Test whether the sequence ACCCCACT records PBM E-score of 0.2 or higher.
OUT: false

IN: Test whether the sequence CCCCCACC records PBM E-score of 0.2 or higher.
OUT: false

IN: Test whether the sequence AATGATAG records PBM E-score of 0.2 or higher.
OUT: false

IN: Test whether the sequence GCCCCACA records PBM E-score of 0.2 or higher.
OUT: false

IN: Test whether the sequence AATTAAGT records PBM E-score of 0.2 or higher.
OUT: false

IN: Test whether the sequence ACATAAAA records PBM E-score of 0.2 or higher.
OUT: false
